- Test system: LNCaP tumor bearing mice
- test: SPECT/CT scanning, exposure of 177Lu labeled compounds in tumor and tissues
- Format: in vivo
- reportedConditions: labeled with 177Lu; about 7.4 MBq (200 μCi) tail vein; scans 1-72 h
valueType: Exposure in Bone (h*ID %/g)
# number only, unit h*ID %/g dropped from output

Illustrative cases are given below, each with its answer.
1. COc1ccc(C(=O)NCCN2CCN(C(=O)CCC(=O)N[C@@H](CCCCNC(=O)CN3CCN(CC(=O)O)CCN(CC(=O)O)CCN(CC(=O)O)CC3)C(=O)N3CCc4cc(C(=O)N[C@@H](Cc5ccc6ccccc6c5)C(=O)NCCCC[C@H](NC(=O)N[C@@H](CCC(=O)O)C(=O)O)C(=O)O)ccc4C3)CC2)cc1 [PSMA-L] | 15.5
2. COc1ccc(C(=O)N[C@@H](CCCCNC(=O)CN2CCN(CC(=O)O)CCN(CC(=O)O)CCN(CC(=O)O)CC2)C(=O)NCC2CCC(C(=O)N[C@@H](Cc3ccc4ccccc4c3)C(=O)NCCCC[C@H](NC(=O)N[C@@H](CCC(=O)O)C(=O)O)C(=O)O)CC2)cc1 (stereo partly shown) [PSMA-I] | 50.24
3. O=C(O)CC[C@H](NC(=O)N[C@@H](CCCCNC(=O)[C@H](Cc1ccc2ccccc2c1)NC(=O)[C@H]1CC[C@H](CNC(=O)CN2CCN(CC(=O)O)CCN(CC(=O)O)CCN(CC(=O)O)CC2)CC1)C(=O)O)C(=O)O [PSMA-617, reference compound] | 9.939

Lookup: For the compound O=C(O)CCCCCCCCCCCCCCC(=O)N[C@@H](CCCCNC(=O)CN1CCN(CC(=O)O)CCN(CC(=O)O)CCN(CC(=O)O)CC1)C(=O)NCC1CCC(C(=O)N[C@@H](Cc2ccc3ccccc3c2)C(=O)NCCCC[C@H](NC(=O)N[C@@H](CCC(=O)O)C(=O)O)C(=O)O)CC1 (stereo partly shown) [PSMA-F] , give its reported Exposure in Bone.
Found: 94.85
